Structures can show the parent of a compound that is named as a salt.
Assay read-out IC50; system under study: Full-length PRMT5 enzyme co-expressed with His6-MEP50 (Homo sapiens (Human)).
Sequence (O14744 whole entry): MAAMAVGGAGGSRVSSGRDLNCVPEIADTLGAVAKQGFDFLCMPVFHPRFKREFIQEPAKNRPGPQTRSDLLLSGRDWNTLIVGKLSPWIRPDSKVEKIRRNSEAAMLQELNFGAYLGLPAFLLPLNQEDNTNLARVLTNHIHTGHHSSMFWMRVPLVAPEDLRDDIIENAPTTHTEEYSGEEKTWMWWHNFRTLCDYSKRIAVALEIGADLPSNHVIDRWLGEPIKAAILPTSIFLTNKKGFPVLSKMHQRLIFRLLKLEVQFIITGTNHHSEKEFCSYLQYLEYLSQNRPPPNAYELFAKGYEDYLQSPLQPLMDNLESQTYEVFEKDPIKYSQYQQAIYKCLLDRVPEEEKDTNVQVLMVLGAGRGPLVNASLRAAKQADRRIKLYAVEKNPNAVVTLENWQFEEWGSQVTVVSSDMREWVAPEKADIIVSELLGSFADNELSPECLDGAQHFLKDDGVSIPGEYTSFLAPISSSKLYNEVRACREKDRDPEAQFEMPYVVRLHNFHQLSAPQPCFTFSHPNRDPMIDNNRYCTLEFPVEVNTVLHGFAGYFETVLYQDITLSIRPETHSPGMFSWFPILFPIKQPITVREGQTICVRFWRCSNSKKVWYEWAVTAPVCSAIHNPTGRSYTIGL
Sequence (Q9BQA1 whole entry partner): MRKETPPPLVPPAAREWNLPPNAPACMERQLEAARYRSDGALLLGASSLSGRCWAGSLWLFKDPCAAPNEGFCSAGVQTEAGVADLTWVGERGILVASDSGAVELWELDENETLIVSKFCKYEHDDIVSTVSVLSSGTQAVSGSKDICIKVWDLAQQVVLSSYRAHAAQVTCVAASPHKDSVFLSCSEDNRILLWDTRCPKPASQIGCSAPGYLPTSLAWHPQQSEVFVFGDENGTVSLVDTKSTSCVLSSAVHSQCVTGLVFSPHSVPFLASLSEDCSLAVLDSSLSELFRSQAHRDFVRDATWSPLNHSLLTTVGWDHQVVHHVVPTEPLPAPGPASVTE
Give bare numbers, in nM.

molecule: CC(=O)N1CCC(Nc2nccc(C(=O)NC[C@@H](O)CNC3Cc4ccccc4C3)c2Cl)CC1 [Compound 2]
assay-target: Full-length PRMT5 enzyme co-expressed with His6-MEP50 (Homo sapiens (Human))
unit-of-measure: nM
IC50: 105

Lab book: IC50 of CCOc1nc(OCc2ccccc2)ccc1C(=O)NC[C@@H](O)CNC1Cc2ccccc2C1 [Compound 1, hydrochloride] noted as 86
